The reader will find reported koff values listed item by item below.
target: T1, SARS-CoV-2 Receptor Binding Domain (RBD) protein (SARS-CoV-2, UniProt P0DTC2 319-541); assay: SPR (Carterra LSA); scFv captured by anti-V5, RBD as analyte
T1 construct: also called Sars-Cov-2 (COV2)
experimental readout: koff (s⁻¹)

>>> observed("COVID19_P13_D11 (scFv, V domains shown) VH: QVQLVQSGAEVKKPGSSVKVSCKASGYSFNAFYIHWVRQAPGQGLEWMGGIIPIFGTANYAQKFQGRVTITADESTSTAYMELSSLRSEDTAVYYCALETVMGGMDVWGQGTLVTVSS VL: SSYVLTQPPSVSVAPGKTARITCGGNNIGSKSVHWYQQKPGQAPVLVIYYDSDRPSGIPERFSGSNSGNTATLTISRVEAGDEADYYCQVWDGSSDYVFGGGTKLTVLA")
0.011
>>> observed("COVID19_P13_H07 (scFv, V domains shown) VH: QVQLVQSGAEVKKPGSSVKVSCKASGYTFINYDINWVRQAPGQGLEWMGGITPIFGTAKYAQKFQGRVTITADESTSTAYMELSSLRSEDTAVYYCARDTVMGGMDVWGQGTLVTVSS VL: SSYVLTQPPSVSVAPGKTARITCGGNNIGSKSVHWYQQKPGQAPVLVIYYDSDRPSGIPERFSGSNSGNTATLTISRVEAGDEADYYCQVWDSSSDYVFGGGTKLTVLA")
0.00031
>>> observed("COVID19_P01_H04 (scFv, V domains shown) VH: QVQLVQSGAEVKKPGSSVKVSCKASGYPFSSYEINWVRQAPGQGLEWMGGITPIFGTANYAQKFQGRVTITADESTSTAYMELSSLRSEDTAVYYCADETVMGGMDVWGQGTLVTVSS VL: SSYVLTQPPSVSVAPGKTARITCGGNNIGSKSVHWYQQKPGQAPVLVIYYDSDRPSGIPERFSGSNSGNTATLTISRVEAGDEADYYCQVWDSSNDYVFGGGTKLTVLA")
0.00056
